Tested on: NCI-H23 lung
Assay: NCI tumour cell line growth inhibition, 48 h
List of TGI values.
Outcome Measure: TGI (µM)

>  <Smiles String>
COc1cc(-c2nn(-c3cccc(NC(=O)Nc4cc(C(F)(F)F)cc(C(F)(F)F)c4)c3)cc2-c2ccncc2)ccc1Cl

>  <Outcome Measure>
TGI

>  <Sign Qualifier>
=

>  <Test Value>
3.94

$$$$
>  <Smiles String>
O=c1nc2n(-c3ccc(Cl)cc3)c3ccc([N+](=O)[O-])cc3cc-2c(=O)[nH]1

>  <Outcome Measure>
TGI

>  <Sign Qualifier>
=

>  <Test Value>
34

$$$$
>  <Smiles String>
c1ccc(N=C(Nc2ccccc2)N2CCCCC2)cc1

>  <Outcome Measure>
TGI

>  <Sign Qualifier>
>

>  <Test Value>
100

$$$$
>  <Smiles String>
CC(C)c1cc(CN(C)C)c(O)c(C(C)(C)C)c1

>  <Outcome Measure>
TGI

>  <Sign Qualifier>
>

>  <Test Value>
100

$$$$
>  <Smiles String>
O=C(CNc1cccc([N+](=O)[O-])c1)Nn1c(-c2ccccc2)nc2ccccc2c1=O

>  <Outcome Measure>
TGI

>  <Sign Qualifier>
=

>  <Test Value>
9.32

$$$$
>  <Smiles String>
[O-][n+]1onc2c1CCC(=N\O)/C2=N/Nc1ccccc1

>  <Outcome Measure>
TGI

>  <Sign Qualifier>
>

>  <Test Value>
100

$$$$
>  <Smiles String>
COc1ccc(C(=O)Cc2c(C(=O)c3ccccc3)c3ccccc3n2C(=O)c2ccccc2)cc1

>  <Outcome Measure>
TGI

>  <Sign Qualifier>
>

>  <Test Value>
100

$$$$

* * *

Tested on: NCI-H226 lung
Experiment: NCI tumour cell line growth inhibition, 48 h
We begin with a simple list: items and their reported TGI.

>  <Compound>
COc1ccc(C2CC(c3ccccc3)=Nc3c(-c4ccccc4)nnn32)cc1 (centres undefined)

>  <Sign Qualifier>
>

>  <TGI [µM]>
100

$$$$
>  <Compound>
O=c1[nH]/c(=C/c2ccc(OCc3ccccc3)cn2)c(=O)[nH]/c1=C/c1ccc([N+](=O)[O-])cc1

>  <Sign Qualifier>
>

>  <TGI [µM]>
100

$$$$
>  <Compound>
COc1cc2c3c(n(CCCN)c(=O)c2cc1OC)-c1cc2c(cc1/C3=C\CCN)OCO2

>  <Sign Qualifier>
=

>  <TGI [µM]>
5.9

$$$$
>  <Compound>
COc1cc(-c2nn(-c3cccc(NC(=O)Nc4cc(C(F)(F)F)cc(C(F)(F)F)c4)c3)cc2-c2ccncc2)ccc1Cl

>  <Sign Qualifier>
=

>  <TGI [µM]>
11.7

$$$$

* * *

// values below are reported TGI
Test system: SN12C renal
Test: NCI tumour cell line growth inhibition, 48 h

>  <Compound>
O=c1nc2n(-c3ccc(Cl)cc3)c3ccc([N+](=O)[O-])cc3cc-2c(=O)[nH]1

>  <Target Under Test>
SN12C renal

>  <TGI>
44.5 µM

$$$$
>  <Compound>
Nc1ncnc2c1nc(Cl)n2C1OC2COP(=O)(O)OC2C1O (centres undefined)

>  <Target Under Test>
SN12C renal

>  <TGI>
> 300 µM

$$$$
>  <Compound>
O=c1c2ccccc2n(C[C@H]2CO2)c2ccccc12

>  <Target Under Test>
SN12C renal

>  <TGI>
7.05 µM

$$$$
>  <Compound>
C[S+](C)CCOC(=O)C(=[N+]=[N-])c1ccc([N+](=O)[O-])cc1

>  <Target Under Test>
SN12C renal

>  <TGI>
> 100 µM

$$$$
>  <Compound>
COC1CC(OC2C(C)OC(OC3C(C)OC(OC4C(O)CC(O[C@H]5CC[C@@]6(C)C(=CC[C@]7(O)[C@@H]6C[C@@H](OC(=O)/C=C/c6ccccc6)[C@@]6(C)[C@]7(O)CC[C@@]6(O)C(C)=O)C5)OC4C)CC3OC)CC2OC)OC(C)C1O (some centres undefined)

>  <Target Under Test>
SN12C renal

>  <TGI>
> 6.25 µM

$$$$
>  <Compound>
Oc1ccccc1C=NCc1ccco1

>  <Target Under Test>
SN12C renal

>  <TGI>
> 100 µM

$$$$
>  <Compound>
N#C/C(=C/c1ccc[nH]1)P(=O)(O)O

>  <Target Under Test>
SN12C renal

>  <TGI>
> 100 µM

$$$$
>  <Compound>
CC(=O)O[C@H]1C(=O)[C@@]2(C)[C@H]([C@H](OC(=O)c3cccc(C(F)(F)F)c3)[C@]3(O)C[C@H](OC(=O)[C@H](O)[C@@H](NC(=O)c4ccccc4)c4ccccc4)C(C)=C1C3(C)C)[C@]1(OC(C)=O)CO[C@@H]1C[C@@H]2O

>  <Target Under Test>
SN12C renal

>  <TGI>
> 25 µM

$$$$
>  <Compound>
O=C1/C(=C/c2ccccc2)CN(C(=O)c2cccnc2)C/C1=C\c1ccccc1

>  <Target Under Test>
SN12C renal

>  <TGI>
7.96 µM

$$$$
